tested on: LOX IMVI melanoma; test: NCI-60 one-dose screen, 48 h (100 = growth as untreated, 0 = no growth, -100 = all killed); details: 10 µM unless noted
About 83,000 compounds went through this panel and 20% of them were active in at least one assay; those are over-represented in the sample as a whole.
OBSERVABLE: growth (%)
Give just the numeric value; % need not be written.

Return reported growth; argument: C/C(=C(/c1ccc(O)cc1)c1ccc(OCCN2CCCC2)cc1)c1ccccc1
-50.2

Return reported growth; argument: CC(C)Oc1nc2c(c(=O)n(C)c(=O)n2C)n1C
98.9

Return reported growth; argument: COc1ccc(CCN2CC=Cn3c2nc2ccccc2c3=O)cc1
14.1

Return reported growth; argument: CCCCCCNC(=O)Oc1ccc(/C(=C(\C)c2ccccc2)c2ccc(OCCN(CC)CC)cc2)cc1
67.8

Return reported growth; argument: S=c1[nH]nc(CSc2ncnc3c2c(-c2ccccc2)cn3-c2ccc(Cl)cc2)o1
90.2

Return reported growth; argument: COc1ccc(Cl)cc1Nc1nc(C(F)(F)F)ccc1C(=O)N/N=C/c1cccnc1
36.3

Return reported growth; argument: Oc1ccccc1N=Cc1c(O)ccc2ccccc12
61.7

* * *

system: SNB-75 CNS; test: NCI-60 one-dose screen, 48 h (100 = growth as untreated, 0 = no growth, -100 = all killed); conditions: 10 µM unless noted
About 83,000 compounds went through this panel and 20% of them were active in at least one assay; those are over-represented in the sample as a whole.
I'd be grateful if you could share measured growth for these entries.
Give just the numeric value; % need not be written.

Return reported growth; argument: CC(=O)CC(C)(C)c1ccc(Cl)cc1
81.9

Return reported growth; argument: CN1CCN(Cc2ccc(NC(=O)c3[nH]ncc3Nc3ncnc4c3CCC4)cc2)CC1
-22.6

Return reported growth; argument: Oc1ccccc1/C=N/Nc1ccc2ccccc2n1
31.9

Return reported growth; argument: CCN(CC)CC(O)c1cc(-c2ccc(Cl)cc2)nc2c(C)c(Cl)ccc12 (stereo not given)
-39.7

Return reported growth; argument: CCN1CCN(Cc2ccc(NC(=O)Nc3nc4ccc(Oc5ccnc(C(=O)NC)c5)cc4s3)cc2C(F)(F)F)CC1
-87.4

* * *

Tested on: SR leukemia
Assay: NCI-60 one-dose screen, 48 h (100 = growth as untreated, 0 = no growth, -100 = all killed)
Conditions: 10 µM unless noted
Protocol: Growth inhibition of the SR human tumor cell line is measured as a screen for anti-cancer activity. Cells are grown in 96 well plates and exposed to the test compound for 48 hours. Compounds are tested at a single concentration, which is 10^-5 M for most compounds. The reported endpoint is percent growth (GI% or GIPRCNT), where numbers from 0 - 100% represent growth inhibition, and numbers from -100% - 0 represent cell death. For example, a value of 40 represents 60% growth inhibition. […]
About 83,000 compounds went through this panel and 20% of them were active in at least one assay; those are over-represented in the sample as a whole.
I'd be grateful if you could share measured growth for these entries.
Give just the numeric value; % need not be written.

Return reported growth; argument: CC(=O)OCC1OC(OC2=C(CC=C(Cl)Cl)C(=O)c3ccccc3C2=O)C(OC(C)=O)C(OC(C)=O)C1OC(C)=O (centres undefined)
-3.56

Return reported growth; argument: O=c1c2c3c(sc2n2c(CCl)nnc2n1Cc1ccccc1)CCCC3
-33.9

Return reported growth; argument: COc1cccc2c1C(=O)c1c(O)c3c(c(O)c1C2=O)C[C@@](O)(/C(C)=N/NC(=O)c1ccc(Cl)cc1)C[C@@H]3OC1CC(N)C(O)C(C)O1 (some centres undefined)
-34.1

Return reported growth; argument: O=C1Nc2c(ccc(Cl)c2Cl)/C1=C/c1cc(Br)c(O)c(Br)c1
39.3

Return reported growth; argument: Cc1ccc2cnc(N)c(C#Cc3cncc(C(=O)Nc4ccc(CN5CCN(C)CC5)c(C(F)(F)F)c4)c3)c2c1
-31.2

Return reported growth; argument: Cc1cc(N/N=C/c2nc(-c3ccc(Cl)cc3)oc2C)c2cc(Br)ccc2n1
4.22

Return reported growth; argument: Cc1cc(Cl)ccc1Nc1nc(C(F)(F)F)ccc1C(=O)N/N=C/c1ccc(F)cc1
-30.8

Return reported growth; argument: COc1cc2c(cc1O)CCc1cc(O)cc(OC)c1-2
77.4

Return reported growth; argument: COc1ccc(CCN2CCCn3c2nc2ccccc2c3=O)cc1
24.8
